List of melting point values.
readoutLabel: melting point

# molecule, readoutLabel, experimentalResult
measured = [
    ("C[C@]1(CN(CCOc2ccc(OC(F)(F)F)cc2)Cc2ccccc2)Cn2cc([N+](=O)[O-])nc2O1", "melting point", "96.5 to 97 °C"),
    ("O=C(NCc1ccc(OC(F)(F)F)cc1)N1CCC2(CC1)Cn1cc([N+](=O)[O-])nc1O2", "melting point", "223 to 225 °C"),
    ("CN(C(=O)OCc1ccc(Cl)cc1)C1CCN(CC2(C)Cn3cc([N+](=O)[O-])nc3O2)CC1 (stereo not drawn)", "melting point", "147.2 to 149.2 °C"),
    ("C[C@]1(CN2CCC(OCCc3ccc(C(F)(F)F)cc3)CC2)Cn2cc([N+](=O)[O-])nc2O1", "melting point", "84.6 to 86.8 °C"),
    ("CNC(C1CCN(c2ccc(Cl)cc2)CC1)[C@]1(C)Cn2cc([N+](=O)[O-])nc2O1 (stereo partly drawn)", "melting point", "179.2 to 182.1 °C"),
    ("CN(CCOc1ccc(OC(F)(F)F)cc1)C[C@@]1(C)Cn2cc([N+](=O)[O-])nc2O1", "melting point", "112.5 to 115 °C"),
    ("C[C@]1(CN2CCC(NCCc3ccc(C(F)(F)F)cc3)CC2)Cn2cc([N+](=O)[O-])nc2O1", "melting point", "80.7 to 84.2 °C"),
    ("C[C@]1(COc2ccc(C3CCN(Cc4ccc(OC(F)(F)F)cc4)CC3)cc2)Cn2cc([N+](=O)[O-])nc2O1", "melting point", "186 to 188 °C"),
    ("CC1(CCN2CCN(c3nc4ccccc4o3)CC2)Cn2cc([N+](=O)[O-])nc2O1 (stereo not drawn)", "melting point", "187.6 to 189.6 °C"),
    ("CC1(CCn2nc(-c3cnccn3)oc2=O)Cn2cc([N+](=O)[O-])nc2O1 (stereo not drawn)", "melting point", "209 to 212 °C"),
    ("O=C(Nc1ccc(F)cc1)N1CCC2(CC1)Cn1cc([N+](=O)[O-])nc1O2", "melting point", "238 to 240 °C (dec.)"),
    ("C[C@]1(CN2CCN(Nc3ccc(C(F)(F)F)cc3)CC2)Cn2cc([N+](=O)[O-])nc2O1", "melting point", "192.1 to 195.3 °C"),
]

====

readoutLabel: melting point

# compound, experimentalResult
measured = [
    ("C[C@]1(COc2ccc(N3CCN(c4ccc(OC(F)(F)F)cc4)CC3)cc2)Cn2cc([N+](=O)[O-])nc2O1", "262.5 to 265 °C"),
    ("O=C(OCc1ccc(C(F)(F)F)cc1)N1CCN(CC2Cn3cc([N+](=O)[O-])nc3O2)CC1 (stereo not drawn)", "120 to 122 °C"),
    ("C[C@]1(CN2CCC(NC(=O)OCc3ccc(OC(F)(F)F)cc3)CC2)Cn2cc([N+](=O)[O-])nc2O1", "156.2 to 158.5 °C"),
]

====

readoutLabel: melting point

# compound, experimentalResult
rows = [
    ("C[C@]1(CN2CCC(NC(=O)OC3CCN(c4ccc(C(F)(F)F)cc4)CC3)CC2)Cn2cc([N+](=O)[O-])nc2O1", "134.4 to 136.9 °C"),
    ("CC1(CN2CCCN(C(=O)OCc3ccccc3)CC2)Cn2cc([N+](=O)[O-])nc2O1.Cl (stereo not drawn)", "115 to 117 °C"),
    ("CN(CCOc1ccc(OC(F)(F)F)cc1)CC1(C)Cn2cc([N+](=O)[O-])nc2O1 (stereo not drawn)", "86.4 to 89.2 °C"),
    ("C[S+]([O-])c1ccc(COC(=O)N2CCN(CC3(C)Cn4cc([N+](=O)[O-])nc4O3)CC2)cc1 (stereo not drawn)", "117 to 121 °C"),
    ("CC1(CN2CCN(C(=O)Oc3ccccc3)CC2)Cn2cc([N+](=O)[O-])nc2O1 (stereo not drawn)", "81 to 85 °C"),
    ("CC1(CN2CCN(N=Cc3ccc(OC(F)(F)F)cc3)CC2)Cn2cc([N+](=O)[O-])nc2O1 (stereo not drawn)", "189.2 to 190.9 °C"),
    ("CC1(CN2CCN(c3nc4ccccc4o3)CC2)Cn2cc([N+](=O)[O-])nc2O1 (stereo not drawn)", "228 to 229.5 °C"),
    ("CC1(CN2CCN(C(=O)c3ccc(C(F)(F)F)cc3)CC2)Cn2cc([N+](=O)[O-])nc2O1 (stereo not drawn)", "161 to 162 °C"),
    ("CCCCCCCCOC(=O)N1CCN(CC2(C)Cn3cc([N+](=O)[O-])nc3O2)CC1 (stereo not drawn)", "138 to 139.4 °C"),
    ("C[C@]1(CN2CCN(c3ccc(C(=O)O)cc3)CC2)Cn2cc([N+](=O)[O-])nc2O1", "248 to 252 °C"),
    ("CC(C)(C)OC(=O)N1CCC(N2CCN(C[C@@]3(C)Cn4cc([N+](=O)[O-])nc4O3)CC2)CC1", "181 to 182 °C"),
    ("C[C@]1(CN2CCC(c3ccc(C(F)(F)F)cc3)CC2)Cn2cc([N+](=O)[O-])nc2O1", "138.7 to 139.9 °C"),
    ("CNC(C1CCN(c2ccc(C#N)cc2)CC1)[C@]1(C)Cn2cc([N+](=O)[O-])nc2O1 (stereo partly drawn)", "149 to 152 °C"),
    ("O=[N+]([O-])c1cn2c(n1)O[C@@H](CN1CCN(c3ccc(Cl)cc3)CC1)C2", "183 to 183.5 °C"),
    ("CC1(CN2CCN(C(=O)Nc3cccc(C(F)(F)F)c3)CC2)Cn2cc([N+](=O)[O-])nc2O1 (stereo not drawn)", "183 to 184 °C"),
    ("C[C@]1(COC(=O)N2CCN(Cc3ccc(Cl)cc3)CC2)Cn2cc([N+](=O)[O-])nc2O1", "161 to 163 °C"),
    ("Cc1nc(-c2ccc(Cl)cc2)sc1CN1CCN(C[C@@]2(C)Cn3cc([N+](=O)[O-])nc3O2)CC1", "174.3 to 175.5 °C"),
    ("CCCCCC(C=NN1CCN(CC2(C)Cn3cc([N+](=O)[O-])nc3O2)CC1)=Cc1ccccc1 (stereo not drawn)", "166.6 to 169.6 °C"),
    ("CC1(CN2CCC(Oc3ccc(C(F)(F)F)cc3)CC2)Cn2cc([N+](=O)[O-])nc2O1 (stereo not drawn)", "113 to 114 °C"),
    ("CC(C)(C)OC(=O)N1CCN(CC(=O)N2CCC3(CC2)Cn2cc([N+](=O)[O-])nc2O3)CC1", "211 to 213 °C"),
    ("CC1(Cn2nc(COc3ccc(Cl)cc3)oc2=O)Cn2cc([N+](=O)[O-])nc2O1 (stereo not drawn)", "64 to 66 °C"),
    ("COc1ccc(CN2CCN(CC3(C)Cn4cc([N+](=O)[O-])nc4O3)C2=O)cc1 (stereo not drawn)", "158.6 to 160.5 °C"),
    ("CC1(CN2CCN(C(=O)Nc3ccc(Cl)c(C(F)(F)F)c3)CC2)Cn2cc([N+](=O)[O-])nc2O1 (stereo not drawn)", "222 to 224 °C"),
    ("CC(C)(C)OC(=O)N1CCN(C(=O)OC[C@@]2(C)Cn3cc([N+](=O)[O-])nc3O2)CC1", "211 to 212 °C"),
    ("O=[N+]([O-])c1cn2c(n1)OC(CN1CCN(c3nc4ccccc4o3)CC1)C2 (stereo not drawn)", "206 to 209 °C (dec.)"),
    ("CC1(CN2C(=O)c3ccccc3C2=O)Cn2cc([N+](=O)[O-])nc2O1 (stereo not drawn)", "264.6 to 268.3 °C"),
    ("O=[N+]([O-])c1cn2c(n1)OC(COc1ccc(N3CCC(Oc4ccc(OC(F)(F)F)cc4)CC3)cc1)C2 (stereo not drawn)", "173.2 to 177.3 °C"),
]

====

List of melting point values.
readoutLabel: melting point

# compound, experimentalResult
measured = [
    ("CC1(CN2CCCN(Cc3ccc(-c4ccccc4)cc3)CC2)Cn2cc([N+](=O)[O-])nc2O1 (stereo not drawn)", "138 to 142.2 °C"),
    ("CSc1ccc(COC(=O)N2CCN(CC3(C)Cn4cc([N+](=O)[O-])nc4O3)CC2)cc1 (stereo not drawn)", "118 to 120 °C"),
    ("Cc1ccc(NC(=O)N2CCN(CC3(C)Cn4cc([N+](=O)[O-])nc4O3)CC2)cc1 (stereo not drawn)", "202 to 203 °C (dec.)"),
    ("CC(C)(C)OC(=O)N1CCN(CCCC2(C)Cn3cc([N+](=O)[O-])nc3O2)CC1 (stereo not drawn)", "166 to 167 °C"),
    ("CC1(CO)Cn2cc([N+](=O)[O-])nc2O1 (stereo not drawn)", "166 to 168 °C"),
    ("CC1(CN2CCN(Cc3ccc(Br)cc3)C2=O)Cn2cc([N+](=O)[O-])nc2O1 (stereo not drawn)", "205.7 to 208.1 °C"),
    ("CCOC(=O)NCC1(C)Cn2cc([N+](=O)[O-])nc2O1 (stereo not drawn)", "182.5 to 183.4 °C"),
    ("C[C@]1(CN2CCN(S(=O)(=O)Cc3ccc(Cl)cc3)CC2)Cn2cc([N+](=O)[O-])nc2O1", "204 to 206 °C"),
    ("C[C@]1(CN2CCN(C(=O)OCC(F)(F)F)CC2)Cn2cc([N+](=O)[O-])nc2O1", "123.5 to 124 °C"),
    ("CN(C(=O)OCc1ccccc1)C1CCN(CC2(C)Cn3cc([N+](=O)[O-])nc3O2)CC1 (stereo not drawn)", "138.7 to 139.2 °C"),
    ("C[C@]1(CN2CCC3(CC2)OCCO3)Cn2cc([N+](=O)[O-])nc2O1", "166.5 to 168.2 °C"),
    ("CC1(CN2CCC(Cc3ccc(C(F)(F)F)cc3)CC2)Cn2cc([N+](=O)[O-])nc2O1 (stereo not drawn)", "125 to 126 °C"),
    ("CC1(CCN2CCN(Cc3ccc(C(F)(F)F)cc3)CC2)Cn2cc([N+](=O)[O-])nc2O1 (stereo not drawn)", "148 to 149 °C"),
    ("C[C@]1(CN2CCC(Cc3ccc(OC(F)(F)F)cc3)CC2)Cn2cc([N+](=O)[O-])nc2O1", "111 to 112.5 °C"),
    ("CC1(CN2CCN(C(=O)N3CCC(c4ccc(Cl)cc4)CC3)CC2)Cn2cc([N+](=O)[O-])nc2O1 (stereo not drawn)", "186 to 187 °C"),
    ("O=[N+]([O-])c1cn2c(n1)O[C@@H](CN1CCN(Cc3ccc(-c4ccccc4)cc3)CC1)C2", "207 to 208 °C"),
    ("O=C(N1CCN(Cc2ccc(C(F)(F)F)cc2)CC1)N1CCC2(CC1)Cn1cc([N+](=O)[O-])nc1O2", "226 to 230 °C (dec.)"),
    ("C[C@]1(COC(=O)N2CCN(c3ccc(OC(F)(F)F)cc3)CC2)Cn2cc([N+](=O)[O-])nc2O1", "168 to 169 °C"),
    ("C[C@]1(COC(=O)N2CCC(Nc3ccc(C(F)(F)F)cc3)CC2)Cn2cc([N+](=O)[O-])nc2O1", "137 to 140 °C"),
    ("CC1(CN2CCC(Oc3ccc(OC(F)(F)F)cc3)CC2)Cn2cc([N+](=O)[O-])nc2O1 (stereo not drawn)", "117 to 119 °C"),
    ("CC1(CNC(=O)OCc2ccc(Cl)cc2)Cn2cc([N+](=O)[O-])nc2O1 (stereo not drawn)", "221 to 221.8 °C"),
]
